I'd be grateful if you could share measured self-cleavage for these entries.
B1: HDV Ribozyme (parent)
chain: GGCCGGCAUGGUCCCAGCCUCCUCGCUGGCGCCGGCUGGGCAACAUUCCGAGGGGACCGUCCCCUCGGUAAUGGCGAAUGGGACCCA

# Variants of: B1
# Test method notes: self-cleavage, relative activity (ratio to wild type); higher = more cleavage; co-transcriptional
Give bare numbers.

{"Mutation string": "C48A U69A", "Measured metric": "self-cleavage", "Test value": 0.814}
{"Mutation string": "C63A G73A", "Measured metric": "self-cleavage", "Test value": 0.681}
{"Mutation string": "U37C C86U", "Measured metric": "self-cleavage", "Test value": 1.06}
{"Mutation string": "G11A G50U", "Measured metric": "self-cleavage", "Test value": 0.283}

Shift focus to the following entry.
Requested read-out: self-cleavage. Entry: C33G G81U
0.0354

Reference for the values: the RNAGym collection of RNA variant scans (doi:10.7554/elife.80360)
